System: Human umbilical vein endothelial cells (HUVEC)
experiment.notes: HUVEC proliferation assay (tritiated thymidine uptake)
Format: cell-based
setup.conditions: Homo sapiens, HUVEC, 400 μM concentration; percentage of control cells with no added agent (Table 3); read-out: Percentage inhibition of HUVEC proliferation
I'd appreciate it if you could supply inhibition at 400 µM values for the items below.
Lab book: enter the figure in %, no units written.

Prompt line: Hello, please tell me recorded inhibition at 400 µM for this one: CC(C)CCCCCCCCCCCCCCC(=O)O
Response line: 19

Prompt line: Hello, please tell me recorded inhibition at 400 µM for this one: CCC(C)CCCCCCCCCCCCCC(=O)O (stereo not drawn)
Response line: 49

Prompt line: Hello, please tell me recorded inhibition at 400 µM for this one: CCC(C)CCCCCCCCCCCCC(=O)O (stereo not drawn)
Response line: 41

Prompt line: Hello, please tell me recorded inhibition at 400 µM for this one: CC(C)CCCCCCCCC(=O)O
Response line: 84

Prompt line: Hello, please tell me recorded inhibition at 400 µM for this one: CCC(C)CCCCCCCCCC(=O)O (stereo not drawn)
Response line: 42

Prompt line: Hello, please tell me recorded inhibition at 400 µM for this one: CC(C)CCCCCCCCCCC(=O)O
Response line: 35

Prompt line: Hello, please tell me recorded inhibition at 400 µM for this one: CCC(C)CCCCCCCCCCCC(=O)O (stereo not drawn)
Response line: 21

Prompt line: Hello, please tell me recorded inhibition at 400 µM for this one: CC(C)CCCCCCCCCCCC(=O)O
Response line: 19

Prompt line: Hello, please tell me recorded inhibition at 400 µM for this one: CC(C)CCCCCCCCCCCCCC(=O)O
Response line: 63

Prompt line: Hello, please tell me recorded inhibition at 400 µM for this one: CCC(C)CCCCCCCCCCC(=O)O (stereo not drawn)
Response line: 32

Prompt line: Hello, please tell me recorded inhibition at 400 µM for this one: CC(C)CCCCCCCCCCCCC(=O)O
Response line: 7

Prompt line: Hello, please tell me recorded inhibition at 400 µM for this one: CC(C)CCCCCCCCCC(=O)O
Response line: 83
